# system: T1, Axl (Homo sapiens, UniProt P30530)
# T1 sequence (P30530 26-451 limits assumed): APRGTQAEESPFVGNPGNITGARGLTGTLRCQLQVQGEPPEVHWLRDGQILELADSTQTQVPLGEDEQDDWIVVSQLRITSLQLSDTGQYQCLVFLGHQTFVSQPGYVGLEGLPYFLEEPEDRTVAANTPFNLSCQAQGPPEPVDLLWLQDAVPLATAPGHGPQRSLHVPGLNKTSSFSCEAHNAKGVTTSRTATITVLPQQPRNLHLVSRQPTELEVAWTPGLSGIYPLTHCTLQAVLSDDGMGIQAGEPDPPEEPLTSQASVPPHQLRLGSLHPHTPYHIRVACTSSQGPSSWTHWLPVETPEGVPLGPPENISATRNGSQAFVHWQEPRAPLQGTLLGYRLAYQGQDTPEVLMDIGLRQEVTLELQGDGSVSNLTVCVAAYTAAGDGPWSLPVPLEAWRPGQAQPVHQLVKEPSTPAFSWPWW
# procedure summary: Affinity ELISA of CPE mutant antibodies for binding to Axl at pH 6.0 over pH 7.4
# assay conditions: heavy chain variable region mutants; 1:3 dilution
property name: Affinity ELISA CPE mutant ratio (1:3, pH 6.0/7.4)

INSERT INTO measurements (molecule, recorded_value) VALUES
  ('HC-F105T (antibody, V domains shown) VH: EVQLVQSGAEVKKPGATVKISCKVSGYSFTGHTMNWIRQPPGKGLEWIGLIKPSNGGTSYNQKFKGRVTISADKSISTAYLQWSSLKASDTAMYYCAHGHYESYTAMDYWGQGTLVTVSS VL: DIQMTQSPSSLSASVGDRVTITCKASQDVSSAVAWYQQKPGQAPRLLIYWASTRHTGVPSRFSGSGSGTEFTLTISSLQPDDFATYYCQEHFSTPLTFGQGTKVEIK', 3.463),
  ('HC-A106G (antibody, V domains shown) VH: EVQLVQSGAEVKKPGATVKISCKVSGYSFTGHTMNWIRQPPGKGLEWIGLIKPSNGGTSYNQKFKGRVTISADKSISTAYLQWSSLKASDTAMYYCAHGHYESYFGMDYWGQGTLVTVSS VL: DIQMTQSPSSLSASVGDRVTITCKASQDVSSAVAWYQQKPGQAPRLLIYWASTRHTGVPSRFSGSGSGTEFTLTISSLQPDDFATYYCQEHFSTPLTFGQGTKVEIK', 1.519),
  ('HC-S103D (antibody, V domains shown) VH: EVQLVQSGAEVKKPGATVKISCKVSGYSFTGHTMNWIRQPPGKGLEWIGLIKPSNGGTSYNQKFKGRVTISADKSISTAYLQWSSLKASDTAMYYCAHGHYEDYFAMDYWGQGTLVTVSS VL: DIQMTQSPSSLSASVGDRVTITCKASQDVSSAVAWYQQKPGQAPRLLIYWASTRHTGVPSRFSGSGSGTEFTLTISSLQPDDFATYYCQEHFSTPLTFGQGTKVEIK', 4.237),
  ('HC-F105V (antibody, V domains shown) VH: EVQLVQSGAEVKKPGATVKISCKVSGYSFTGHTMNWIRQPPGKGLEWIGLIKPSNGGTSYNQKFKGRVTISADKSISTAYLQWSSLKASDTAMYYCAHGHYESYVAMDYWGQGTLVTVSS VL: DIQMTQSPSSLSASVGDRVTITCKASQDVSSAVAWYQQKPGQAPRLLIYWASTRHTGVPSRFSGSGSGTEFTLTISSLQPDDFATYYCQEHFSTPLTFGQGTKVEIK', 2.429),
  ('HC-A106D (antibody, V domains shown) VH: EVQLVQSGAEVKKPGATVKISCKVSGYSFTGHTMNWIRQPPGKGLEWIGLIKPSNGGTSYNQKFKGRVTISADKSISTAYLQWSSLKASDTAMYYCAHGHYESYFDMDYWGQGTLVTVSS VL: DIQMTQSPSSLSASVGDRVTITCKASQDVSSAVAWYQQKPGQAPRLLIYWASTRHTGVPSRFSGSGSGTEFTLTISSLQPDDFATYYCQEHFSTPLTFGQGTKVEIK', 3.389),
  ('HC-Y101N (antibody, V domains shown) VH: EVQLVQSGAEVKKPGATVKISCKVSGYSFTGHTMNWIRQPPGKGLEWIGLIKPSNGGTSYNQKFKGRVTISADKSISTAYLQWSSLKASDTAMYYCAHGHNESYFAMDYWGQGTLVTVSS VL: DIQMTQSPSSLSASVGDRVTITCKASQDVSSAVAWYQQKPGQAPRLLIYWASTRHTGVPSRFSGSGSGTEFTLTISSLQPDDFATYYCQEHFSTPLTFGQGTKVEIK', 2.174),
  ('HC-W110N (antibody, V domains shown) VH: EVQLVQSGAEVKKPGATVKISCKVSGYSFTGHTMNWIRQPPGKGLEWIGLIKPSNGGTSYNQKFKGRVTISADKSISTAYLQWSSLKASDTAMYYCAHGHYESYFAMDYNGQGTLVTVSS VL: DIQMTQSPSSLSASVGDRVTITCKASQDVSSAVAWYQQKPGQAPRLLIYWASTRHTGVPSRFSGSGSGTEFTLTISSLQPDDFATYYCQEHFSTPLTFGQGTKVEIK', 4.304),
  ('HC-S103Q (antibody, V domains shown) VH: EVQLVQSGAEVKKPGATVKISCKVSGYSFTGHTMNWIRQPPGKGLEWIGLIKPSNGGTSYNQKFKGRVTISADKSISTAYLQWSSLKASDTAMYYCAHGHYEQYFAMDYWGQGTLVTVSS VL: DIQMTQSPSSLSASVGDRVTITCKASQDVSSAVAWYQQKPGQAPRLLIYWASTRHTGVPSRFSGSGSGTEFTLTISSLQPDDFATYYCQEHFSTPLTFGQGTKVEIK', 0.912),
  ('HC-W110R (antibody, V domains shown) VH: EVQLVQSGAEVKKPGATVKISCKVSGYSFTGHTMNWIRQPPGKGLEWIGLIKPSNGGTSYNQKFKGRVTISADKSISTAYLQWSSLKASDTAMYYCAHGHYESYFAMDYRGQGTLVTVSS VL: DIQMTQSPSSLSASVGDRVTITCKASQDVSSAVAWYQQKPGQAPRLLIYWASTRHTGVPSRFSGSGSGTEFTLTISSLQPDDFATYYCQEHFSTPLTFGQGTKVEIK', 5.991),
  ('HC-F105N (antibody, V domains shown) VH: EVQLVQSGAEVKKPGATVKISCKVSGYSFTGHTMNWIRQPPGKGLEWIGLIKPSNGGTSYNQKFKGRVTISADKSISTAYLQWSSLKASDTAMYYCAHGHYESYNAMDYWGQGTLVTVSS VL: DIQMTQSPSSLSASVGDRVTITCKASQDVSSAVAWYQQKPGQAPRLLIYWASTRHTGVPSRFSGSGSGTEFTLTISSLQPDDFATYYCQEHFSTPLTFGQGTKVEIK', 2.364);
